Values from paper PMC8922279

protocol-notes: In vitro plasma stability, cynomolgus monkey plasma
run-conditions: monkey, plasma
readout-kind: remaining at 2 h, 2 μM (%)

{"molecule": "C[C@@H](O)[C@H]1C(=O)N2C(C(=O)O)=C(S[C@@H]3CN[C@H](C(=O)Nc4cccc(C(=O)O)c4)C3)[C@H](C)[C@H]12 [Ertapenem, reference compound]", "readout-kind": "remaining at 2 h, 2 μM", "measured-result": 115}
{"molecule": "C[C@@H](O)[C@H]1C(=O)N2C(C(=O)O)=C(S[C@@H]3CN[C@H](C(=O)N(C)C)C3)[C@H](C)[C@H]12 [Meropenem, reference compound]", "readout-kind": "remaining at 2 h, 2 μM", "measured-result": 99.9}

* * *

protocol-notes: in vivo
run-conditions: female, CD-1, mouse, iv, 5 mg/kg
# k el listing for each entry below

{"compound": "O=C(Cc1ccc(C2=NCCN2)cc1)N[C@@H]1C(=O)N2C(C(=O)O)=C(CSc3nncs3)CS[C@H]12", "k el [s⁻¹]": 0.000333}
{"compound": "O=C(CCCC(NC(=O)c1ccc(Cl)cc1Cl)C(=O)O)N[C@@H]1C(=O)N2C(C(=O)O)=C(CSc3cccc[n+]3[O-])CS[C@H]12 (some centres unmarked)", "k el [s⁻¹]": 0.000247}
{"compound": "CN(C)C(=S)SCC1=C(C(=O)O)N2C(=O)[C@@H](NC(=O)Cc3cccs3)[C@H]2SC1", "k el [s⁻¹]": 0.000389}
{"compound": "O=C(O)C1=C(CSc2cccc[n+]2[O-])CS[C@@H]2[C@H](NC(=O)/C(=N\\Oc3ccccc3)c3ccco3)C(=O)N12", "k el [s⁻¹]": 0.000356}
{"compound": "O=C(Cc1cccs1)N[C@@H]1C(=O)N2C(C(=O)O)=C(CSc3cccc[n+]3[O-])CS[C@H]12", "k el [s⁻¹]": 0.000389}

* * *

# recovery at 120 min, 3 μM listing for each entry below
protocol-notes: Caco-2 permeability / efflux transporter substrate
run-conditions: human, Caco-2, pH 7.4, Caco-2 Mean Recovery % A to B

{"compound": "C[C@@H](O)[C@H]1C(=O)N2C(C(=O)O)=C(S[C@@H]3CN[C@H](C(=O)N(C)C)C3)[C@H](C)[C@H]12 [Meropenem, reference compound]", "recovery at 120 min, 3 μM": "< 91%"}
{"compound": "C[C@@H](O)[C@H]1C(=O)N2C(C(=O)O)=C(S[C@@H]3CN[C@H](C(=O)Nc4cccc(C(=O)O)c4)C3)[C@H](C)[C@H]12 [Ertapenem, reference compound]", "recovery at 120 min, 3 μM": "< 116%"}

* * *

# Caco-2 Mean Recovery % A to B listing for each entry below
Tested on: Caco-2 cells
protocol-notes: Caco-2 permeability / efflux transporter substrate
run-conditions: Caco-2

{"molecule": "O=C(O)C1=C(CSc2cccc[n+]2[O-])CS[C@@H]2[C@H](NC(=O)C(F)c3ccccc3)C(=O)N12 (stereo partly shown)", "Caco-2 Mean Recovery % A to B": "< 98.09%"}
{"molecule": "CCCc1nnc(SCC2=C(C(=O)O)N3C(=O)[C@@H](NC(=O)Cc4ccc(C(=N)N)cc4)[C@H]3SC2)s1", "Caco-2 Mean Recovery % A to B": "< 94.56%"}
{"molecule": "CC=CC(=O)OCC1=C(C(=O)O)N2C(=O)[C@@H](NC(=O)C(=NO)c3cccs3)[C@H]2SC1", "Caco-2 Mean Recovery % A to B": "< 98.97%"}
{"molecule": "CCc1nnc(SCC2=C(C(=O)O)N3C(=O)[C@@H](NC(=O)Cc4ccc(C5=NCCN5)cc4)[C@H]3SC2)s1", "Caco-2 Mean Recovery % A to B": "99.13%"}
{"molecule": "CNCc1ccccc1CC(=O)N[C@@H]1C(=O)N2C(C(=O)O)=C(CSc3nnnn3C)CS[C@H]12", "Caco-2 Mean Recovery % A to B": "< 102.74%"}
{"molecule": "Cn1c(SCC2=C(C(=O)O)N3C(=O)[C@@H](NC(=O)Cc4ccccc4CN)[C@H]3SC2)nnc(O)c1=O", "Caco-2 Mean Recovery % A to B": "97.79%"}
{"molecule": "NCc1ccccc1CC(=O)N[C@@H]1C(=O)N2C(C(=O)O)=C(CSc3nnnn3CCO)CS[C@H]12", "Caco-2 Mean Recovery % A to B": "< 102.47%"}
